Cited source: patent US20140284278A1

Please go through the items and note down their solubility.
assay: Solubility in water; details: pure water

[
  {
    "smiles input": "CCCCCCCCCC[N+]1(Cc2ccc(F)cc2)CCCC1.[Cl-]",
    "solubility": "2000 mM"
  }
]

Q. Which solubility is reported for this molecule? CCCCCCCCCC[N+]1(Cc2ccc(F)cc2)CCCC1.O=C([O-])C(F)(F)F
A. ~120 mM
